- procedure_text: Dissociation constant, pKa of the compound
- Format: physicochemical
quantity_kind: pKa
Numbers only.

[Q] Which pKa value belongs to O=[N+]([O-])c1cc(NC2CCCN(Cc3ccccc3C(F)(F)F)C2)ccc1CO (stereo unspecified) ?
[A] 5.9

###

- Test system: Schistosoma haematobium
- procedure_text: Antischistosomal activity against Schistosoma haematobium infected in golden syrian hamster assessed as worm killing at 143 uM pretreated for 45 mins followed by compound washout measured after 14 days
- Assay type: functional
quantity_kind: Activity (%)
Give bare numbers, in %.

Previously resolved entries follow.
• O=[N+]([O-])c1cc(NC2CCCN(Cc3ccccc3C(F)(F)F)C2)ccc1CO (stereo unspecified) = 40
• CC(C)NCC1CCc2cc(CO)c([N+](=O)[O-])cc2N1 (stereo unspecified) [OXAMNIQUINE] = 0
• O=[N+]([O-])c1cc(NC2CCN(Cc3ccc(C(F)(F)F)cc3)CC2)ccc1CO = 0
• O=[N+]([O-])c1cc(NC2CCN(Cc3ccc(OC(F)(F)F)cc3)C2)ccc1CO (stereo unspecified) = 40

Batch lookup, Activity per entry.
1. O=[N+]([O-])c1cc(NC2CCN(Cc3cccc(C(F)(F)F)c3)C2)ccc1CO (stereo unspecified)
2. O=[N+]([O-])c1cc(NC2CCN(Cc3ccc(C(F)(F)F)cc3)C2)ccc1CO (stereo unspecified)
3. O=[N+]([O-])c1cc(NC2CCN(Cc3ccc(OC(F)(F)F)cc3)CC2)ccc1CO
4. O=[N+]([O-])c1cc(NC2CCCN(Cc3ccc(OC(F)(F)F)cc3)C2)ccc1CO (stereo unspecified)

[A]
1: 8; 2: 10; 3: 14; 4: 43

[Q] Which Activity value belongs to O=[N+]([O-])c1cc(NC2CCCN(Cc3cccc(C(F)(F)F)c3)C2)ccc1CO (stereo unspecified) ?
[A] 2
